Experimental system: HIV-1 SF162 Env (HIV-1 strain SF162, UniProt P19550 32-847)
Measurement notes: cell-based or functional assay
Reported values of IC50 neutralization, 1 hour virus/Ab incubation for individual entries

Recorded results for 2 binders are shown here.
binder="1456_P20 (PG20) (antibody, human IgG1, kappa, V domains shown) VH: QVRLVQSGPEVKKPGSSVTVSCQASGGTFSSYAFTWVRQAPGQGLEWLGMVTPIFGEAKYSQRFEGRVTITADESTSTTSIELRGLTSEDTAIYYCARDRRAVPIATDNWLDPWGQGTLVTVSS VL: DIQLTQSPSSLSASVGDRVSITCRASQTINNYLNWYQQTPGKAPKLLIYGASNLQNGVPSRFSGSGSGTDFTLTISSLQPEDFATYYCQQSFSTPRTFGQGTRLDIKR" endpoint_result="0.195 µg/mL"
binder="1443_C16 (PG16) (TCN-116) (antibody, V domains shown) VH: QEQLVESGGGVVQPGGSLRLSCLASGFTFHKYGMHWVRQAPGKGLEWVALISDDGMRKYHSDSMWGRVTISRDNSKNTLYLQFSSLKVEDTAMFFCAREAGGPIWHDDVKYYDFNDGYYNYHYMDVWGKGTTVTVSS VL: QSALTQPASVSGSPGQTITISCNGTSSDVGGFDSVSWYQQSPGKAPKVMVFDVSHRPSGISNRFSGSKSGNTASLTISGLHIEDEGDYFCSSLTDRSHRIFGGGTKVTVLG" endpoint_result="> 50 µg/mL"

Attention now turns to another entry.
Query: Please supply the value of reported IC50 neutralization, 1 hour virus/Ab incubation for the item 1495_C14 (PGC14) (antibody, human IgG1, lambda, V domains shown) VH: DGHLVQSGVEVKKTGATVKISCKVSGYSFIDYYLHWVQRAPGKGLEWVGLIDPENGEARYAEKFQGRVTIIADTSIDTGYMEMRSLKSEDTAVYFCAAGAVGADSGSWFDPWGQGTLVTVSS VL: SYELTQPPSVSVSPGQTASITCSGSKLGDKYVSWYQLRPGQSPILVMYENDRRPSGIPERFSGSNSGDTATLTISGTQALDEADFYCQAWETTTTTFVFFGGGTQLTVLG
Result: 0.0069 µg/mL
